- Tested target: human 11β-HSD1 (Homo sapiens)
- Construct: host or cells: microsome fraction
- Sequence (P28845 whole entry): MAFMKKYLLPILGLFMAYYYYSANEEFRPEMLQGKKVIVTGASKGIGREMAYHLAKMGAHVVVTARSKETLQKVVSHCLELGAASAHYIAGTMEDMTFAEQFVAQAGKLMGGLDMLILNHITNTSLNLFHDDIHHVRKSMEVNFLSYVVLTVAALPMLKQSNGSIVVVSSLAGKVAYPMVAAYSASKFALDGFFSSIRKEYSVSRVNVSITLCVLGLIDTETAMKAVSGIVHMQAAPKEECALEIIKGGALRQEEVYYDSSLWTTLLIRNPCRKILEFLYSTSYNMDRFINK
- Experiment summary: Enzymatic 11beta-HSD1 test (SPA-based detection)
- Format: biochemical
- Study conditions: human 11β-HSD1 microsome fraction, [1,2-3H]-cortisone substrate, NADPH, 37° C. 1 hour, read-out: IC50 (nM), Biological activity in nanomolar
- Experimental: Enzymatic 11beta-HSD1 Test: First of all, 20 μl of the human 11β-HSD1 microsome fraction (0.2 μg of protein), prepared in 50 mM HEPES, 0.1% BSA (w/v), were applied to a plate with 384 wells. The test compounds (0.09 μl) were applied to the assay plate in 100% DMSO. The reaction was started by addition of 20 μl of [1,2-^3H]-cortisone (0.1 μCi/[…]) in assay buffer comprising 25 mM HEPES, 100 mM KCl, 5 mM NaCl, 2 mM MgCl2 and 0.25 mM NADPH. The plate was agitated at 37° C. for 1 hour. […]

# Compound, IC50, nM
data = [
    ("CC1(COCc2ccccc2)OC(NC2CCCCC2)=NS(=O)(=O)C12CC2 (stereo not shown) [Example 6]", 73),
    ("C[C@H](NC1=NS(=O)(=O)C(C)(C)C(C)(C)O1)c1ccccc1F [Example 21]", 5),
    ("CC1(CO)OC(NC2CCCCC2)=NS(=O)(=O)C12CC2 (stereo not shown) [Example 7]", 786),
    ("CC(C)(O)C[C@H](NC1=NS(=O)(=O)C(C)(C)C(C)(C)O1)c1cccnc1 [Example 16]", 586),
    ("CC1(C)OC(N[C@H]2CCC[C@H](O)C2)=NS(=O)(=O)C1(C)C [Example 18]", 560),
    ("CC1(C)OC(NC23CCC(CC2)CC3)=NS(=O)(=O)C1(C)C [Example 15]", 4),
    ("CC1(C)OC(N[C@@H](CCO)c2ccccc2)=NS(=O)(=O)C12CC2 [Example 5]", 37),
    ("CC1(C)OC(NC23CCC(F)(CC2)CC3)=NS(=O)(=O)C12CC2 [Example 8]", 22),
    ("CC1(C)OC(N[C@@H](CS(N)(=O)=O)c2ccc(F)cc2)=NS(=O)(=O)C1(C)C (single isomer, unassigned) [Example 14]", 10),
    ("CC1(C)OC(NC23CCC(F)(CC2)CC3)=NS(=O)(=O)C1(C)C [Example 9]", 4),
    ("CC1(C)OC(N[C@@H]2CCC[C@@H](O)C2)=NS(=O)(=O)C1(C)C [Example 25]", 289),
    ("COCC1(C)OC(NC2CCCCC2)=NS(=O)(=O)C12CC2 (stereo not shown) [Example 4]", 462),
    ("CC1(C(F)(F)F)OC(NC2CCCCC2)=NS(=O)(=O)C12CC2 (stereo not shown) [Example 13]", 19),
]

FYI, the data here is from patent US8871758B2.
